# PROCEDURE_SUMMARY: qHTS RealTime-Glo MT Cell Viability Assay in HEK293 cells - 32 hour (AID 1224868); also: nearly all actives have a fitted effect of over 50% in size
# CONDITION_CONTEXT: RealTime-Glo luminescence; series mostly up to 76.8 µM
Inconclusive results are not listed. The source made the active and inactive calls. Calls follow the shape of the dose curve; as a rule, active = well fitted cell-killing curve with a large enough effect in the repeat runs; inconclusive = weak or mixed curves, or effect the other way; inactive = flat fitted curve, though single readings scatter.
Your reply should match one of these outcome classes. label 1 = active, label 0 = inactive

Solved entries:
Outcome logged for NC/C=C/C(=O)O in this assay: label 0

Outcome logged for CCOC(=O)NCCC[Si](OCC)(OCC)OCC in this assay: label 0

Outcome logged for O=S(=O)(O)C(F)(F)F in this assay: label 0

---
Outcome logged for Cc1c(N)cccc1N in this assay: label 0

Outcome logged for CCCN(CCC)C(=O)C(CCC(=O)O)NC(=O)c1ccccc1 (configuration not stated) in this assay: label 0

Outcome logged for CCOc1ccc2nc(N)sc2c1 in this assay: label 0

Outcome logged for O=Cc1ccc(F)c(Br)c1 in this assay: label 0

Outcome logged for C=CCCCCCCCCO in this assay: label 0

Outcome logged for CCCCNC(=S)NCCCC in this assay: label 0

Outcome logged for CC1=C(O)C(=O)OC1C (configuration not stated) in this assay: label 0

Outcome logged for CCCNC(C)(C)COC(=O)c1ccccc1 in this assay: label 0

Outcome logged for O=C1CCCc2ccccc21 in this assay: label 0

Outcome logged for CC(C)C1=CC2=CC[C@@H]3[C@](C)(CCC[C@@]3(C)C(=O)O)[C@H]2CC1 in this assay: label 0

Outcome logged for Cc1ccc(C(C)C)cc1O in this assay: label 0

Outcome logged for CC(C)OC(C)C in this assay: label 0

Outcome logged for Cc1cn([C@@H]2O[C@H](CO)[C@@H](O)[C@@H]2F)c(=O)[nH]c1=O in this assay: label 0

Outcome logged for CCC(=O)c1ccc2c(c1)N(CCCN(C)C)c1ccccc1S2 in this assay: label 1

Outcome logged for CN1CCN(c2c(F)cc3c(=O)c(C(=O)O)cn(CCF)c3c2F)CC1 in this assay: label 0

Outcome logged for ClC(Cl)Cl in this assay: label 0
